# measurement_target: human Claudin-6 (CLDN6) (human) (UniProt P56747)
# test_method_notes: FACS, 0.3 ug Ab, ARK2 cells (2nd Ab only 1351.21)
measurement_name: FACS fluorescence
In your answer, state the number alone without any accompanying words.

Q: Can you look up the measured FACS fluorescence of AB4-11 (antibody, V domains shown, humanized) VH: QVQLVQSGAEVKKPGASVKMSCKASGYTFTSYTMHWIRQAPGQGLEWIGYINPSSTYTHYIKKFKDRATLTADKSTSTAYMELSSLRSEDTAVYYCSRGELGGFAYWGQGTLVTVSS VL: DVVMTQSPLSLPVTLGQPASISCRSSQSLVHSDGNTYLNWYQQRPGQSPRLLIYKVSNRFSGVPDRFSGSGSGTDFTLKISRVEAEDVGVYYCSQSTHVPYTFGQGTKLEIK for me?
Result: 6390

This collection of values is drawn from patent US20230049752A1.
